Test system: SW-620 colon
Assay: NCI-60 one-dose screen, 48 h
Settings: 10 µM unless noted
The panel holds about 83,000 compounds, 20% with a hit somewhere; the sample as a whole holds those more often. The source made the active and inactive calls. How the source made its calls: active means growth percent below 10; inactive means the rest.
Possible outcomes: class 1 for active, class 0 for inactive

COc1ccc(Cl)cc1NC(=O)c1cc2c(n1C)-c1nc(NC(=O)C(C)C)sc1CC2: class 0
O=C(CSc1nnc(-c2ccc(Cl)cc2)o1)Nc1ccc(C(=O)/C=C/c2ccccc2)cc1: class 0
C[C@H]1C=C(C[C@@H](O)CCCCCCCCCC[C@@H](O)[C@H]2CCC(=O)O2)C(=O)O1: class 0
CCOC(=O)c1[nH]c(-c2ccc(Cl)cc2)cc1-c1cccnc1: class 0
C=CCn1c(SCC(=O)Nc2ccc(C(=O)/C=C/c3cc(OC)c(OC)c(OC)c3)cc2)nnc1-c1ccc(OC)cc1: class 1
Cc1ccc(N(CC2=NCCN2)c2cccc(O)c2)cc1: class 0
O=C(Nc1ccccc1F)Nc1ccccc1Cl: class 0
COc1ccc2c(c1)C(=O)/C(=C/c1cccc(OCC(=O)c3ccccc3)c1)O2: class 1
Cc1ccc(-c2cn3cc([N+](=O)[O-])ccc3n2)cc1: class 0
O=C(Nc1cccc(-n2ccc3c(NC(=O)c4ccccc4)nccc32)c1)c1cc(N2CCOCC2)cc(C(F)(F)F)c1: class 0
COc1ccc(Cn2cc(COc3ccc4c5ccnc(C)c5n(CCCc5ccccc5)c4c3)nn2)cc1: class 0
CCOC(=O)c1noc2c1CCc1cn(Cc3cc(OC)cc(OC)c3)cc1-2: class 0
CN(C)c1ccc2cc(-c3nc4ccccc4s3)c(N)nc2c1: class 0
NC(=S)NNC1CCCCC1: class 0
COc1ccc(-c2[nH]c3ccccc3c2/C=C(\C#N)S(=O)(=O)c2ccccc2)cc1: class 0
COc1ccc(C(=O)NC(=O)Nc2ccc3c(c2)NC(=O)/C3=C\c2[nH]c(C)c(C(=O)O)c2C)c(F)c1: class 0
Cc1ccc(-c2nc3c(N=Nc4ccc(S(N)(=O)=O)cc4)c(N)nn3c(N)c2C#N)cc1: class 0
O=C(Nc1ccc(-n2cc(-c3ccncc3)c(-c3ccc(O)c(Cl)c3)n2)cc1)Nc1cccc(Cl)c1Cl: class 0
COc1cc(-c2nc3ccccc3s2)ccc1OCc1nc2n(n1)S(=O)(=O)c1ccccc1N2c1ccccc1: class 0
O=C(Nc1ccc(-n2ccc3c(NC(=O)c4ccccc4)ncnc32)cc1)Nc1cccc(Cl)c1Cl: class 0
CC1(C)CC(=O)C2=C(C1)OC1=C(C(=O)CC(C)(C)C1)C2c1ccc(OCc2cn(-c3ccc(F)cc3F)nn2)cc1: class 0
COc1cc(NC(=O)C#Cc2ccccc2)c(OC)cc1Cl: class 0
Cc1cc2nc(-c3c(N)ncc(C#N)c3-c3ccc(Cl)cc3)[nH]c2cc1C: class 0
CCOc1ccc(-n2c(-c3cc(OC)c(OC)c(OC)c3)nnc2-c2ccc(OC)cc2N)cc1: class 0
COc1ccc(-c2cc(-c3nnc(SC/C(=N\O)c4ccccc4)n3-c3ccccc3)c3ccccc3n2)cc1: class 0
O=C(C[n+]1cccc(Br)c1)c1ccc2c(c1)CCCC2: class 0
O=C(NCCNc1nccc(-c2c(-c3cccc(O)c3)nc3sccn23)n1)c1cc(N2CCOCC2)cc(C(F)(F)F)c1: class 0
NC(N)=N/N=C/c1ccc([N+](=O)[O-])cc1: class 0

###

Test system: COLO 205 colon
Experiment: NCI-60 one-dose screen, 48 h (100 = growth as untreated, 0 = no growth, -100 = all killed)
Details: 10 µM unless noted
This is part of a sample that, as a whole, favours compounds with a hit. Of some 83,000 tested, about 20% had one in any assay.
property.measured: growth (%)

Cc1cn(C2CC(F)C(CO)O2)c(=O)[nH]c1=O (stereo unspecified): 116
O=S(=O)(CCN1CCOCC1)Nc1cncc(-c2ccc3ncnc(Nc4ccc(F)c(Cl)c4)c3c2)c1: 64.9
OC[C@@H](O)C(O[C@@H]1O[C@H](CO)[C@H](O)[C@H](O)[C@H]1O)[C@H](O)[C@@H](O)CO (stereo partly specified): 110
CC(=O)N1N=C(CCC(=O)c2nc3ccc([N+](=O)[O-])cc3[nH]2)OC1c1ccc(O)cc1 (stereo unspecified): 92.3
Oc1ccccc1/C=N/c1ccccn1: 85.7
c1ccc([Se]CCCN2CCN(CCC[Se]c3ccccc3)CC2)cc1: 135
